# TARGET_UNDER_TEST: Bifunctional dihydrofolate reductase-thymidylate synthase (Plasmodium berghei str. ANKA)
# Sequence (Q27713 whole entry): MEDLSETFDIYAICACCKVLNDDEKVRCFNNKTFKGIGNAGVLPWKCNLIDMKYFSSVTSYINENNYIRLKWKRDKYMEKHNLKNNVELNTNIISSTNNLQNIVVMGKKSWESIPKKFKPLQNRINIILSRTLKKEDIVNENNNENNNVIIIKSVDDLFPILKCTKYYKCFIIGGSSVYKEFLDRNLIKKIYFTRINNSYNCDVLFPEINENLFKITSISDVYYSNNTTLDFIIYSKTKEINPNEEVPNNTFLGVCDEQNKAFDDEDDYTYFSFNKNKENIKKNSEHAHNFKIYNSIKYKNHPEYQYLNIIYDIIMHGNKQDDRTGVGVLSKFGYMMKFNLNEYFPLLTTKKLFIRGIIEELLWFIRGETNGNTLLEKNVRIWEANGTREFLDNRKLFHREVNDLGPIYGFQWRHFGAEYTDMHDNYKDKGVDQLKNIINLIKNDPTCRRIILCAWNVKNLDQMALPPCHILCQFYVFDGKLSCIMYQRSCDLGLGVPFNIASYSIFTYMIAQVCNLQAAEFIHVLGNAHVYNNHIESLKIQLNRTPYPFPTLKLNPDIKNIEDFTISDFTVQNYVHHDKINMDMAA
# EXPERIMENTAL_PROTOCOL: Compound was tested for its inhibition against dihydrofolate reductase enzyme of Plasmodium berghei
# CONDITION_LABEL: read-out: I50
Reported pIC50 is given for each of the following molecules.
Please note pIC50 is a logarithmic value: minus log10 of concentration in mol/L. Answer with that number alone.

The recorded pIC50 for CCCc1nc(N)nc(N)c1Cc1cc(OC)c(O)c(OC)c1 is 5.82

Given item COc1cc(Cc2c(C)nc(N)nc2N)cc(OC)c1O , the value recorded as its pIC50 is 6.32

Entry COc1cc(Cc2c(C)nc(N)nc2N)cc(OC)c1OC ; pIC50 = 6.47
